Reference source: patent US11873291B2

- System: cGAS activity in Reporter THP1 cell line
- Test Details: Cellular assay to measure cGAS activity: ISRE-Gaussia luciferase reporter THP1 cells transfected with ISD
- Assay type: cell-based
- Protocol Conditions: Homo sapiens, THP-1, Table 4, Gaussia luciferase
Observation Type: IC50

C[C@H]1C[C@@H](COCCC(=O)O)N(c2cc(-n3ccnc3)c3ccc(Cl)c(Cl)c3n2)C1 [I-708]
< 2000 nM

I'm hoping you can list IC50 for every compound here, please.
1. O=C(O)CCOC[C@@H]1CCCN1c1cc(-c2cn[nH]c2)c2ccc(Cl)c(Cl)c2n1 [I-670]
2. O=C(O)CCCC[C@@H]1CCCN1c1cc(-n2ccnc2)c2ccc(Cl)c(Cl)c2n1 [I-683]
3. O=C(O)C[C@@H]1CCCN1c1cc(-n2ccnc2)c2ccc(Cl)c(Cl)c2n1 [I-443]
4. O=C(O)CCOC[C@@H]1CN(c2cc(-c3cn[nH]c3)c3ccc(Cl)c(Cl)c3n2)CCO1 [I-741]
5. COC(=O)CCOC[C@@H]1CN(c2cc(-c3cn[nH]c3)c3ccc(Cl)c(Cl)c3n2)CCO1 [I-752]
6. O=C(O)c1cnn(C[C@@H]2CCCN2c2cc(-n3ccnc3)c3ccc(Cl)c(Cl)c3n2)c1 [I-728]

< 2000 nM
< 2000 nM
2000 to 10000 nM
2000 to 10000 nM
> 10000 nM
2000 to 10000 nM

Give cGAS activity in Reporter THP1 cell line IC50 for COC(=O)COC[C@@H]1CN(c2cc(-c3cn[nH]c3)c3ccc(Cl)c(Cl)c3n2)CCO1 [I-751]
2000 to 10000 nM

###

- Tested On: recombinant human cGAS (aa147-522) (Homo sapiens, UniProt Q8N884)
- Construct: recombinant human cGAS (aa147-522); His6-SUMO (cleaved yes); made in house; host or cells: E. coli BL21/pLys
- Sequence (Q8N884 147-522): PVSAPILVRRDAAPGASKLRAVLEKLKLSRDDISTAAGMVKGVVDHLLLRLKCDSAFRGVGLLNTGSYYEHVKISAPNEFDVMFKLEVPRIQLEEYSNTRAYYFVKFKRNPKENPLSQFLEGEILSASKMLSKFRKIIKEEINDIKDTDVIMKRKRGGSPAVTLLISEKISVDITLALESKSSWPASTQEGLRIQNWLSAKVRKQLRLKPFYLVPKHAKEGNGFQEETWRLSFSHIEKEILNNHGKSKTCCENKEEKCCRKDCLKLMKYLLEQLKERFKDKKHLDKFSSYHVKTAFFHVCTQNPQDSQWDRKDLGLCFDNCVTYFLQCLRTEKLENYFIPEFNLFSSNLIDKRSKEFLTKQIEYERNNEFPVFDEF
- Test Details: In vitro inhibition assay of cGAS activity (ATP consumption, KinaseGlo Max)
- Format: biochemical
- Protocol Conditions: Table 3, read-out: cGAS Inhibition Results IC50
Observation Type: IC50

// known answers, use as guide
O=C(O)CCOCCC[C@@H]1CCCN1c1cc(-n2ccnc2)c2ccc(Cl)c(Cl)c2n1
< 2000 nM
COC(=O)C1C(C)CCN1c1cc(-n2ccnc2)c2ccc(Cl)c(Cl)c2n1 (centres unmarked)
2000 to 30000 nM
Clc1ccc2c(-n3ccnc3)cc(N3CCC(c4nn[nH]n4)C3)nc2c1Cl (centres unmarked)
< 2000 nM
O=C(O)CCOC[C@@H]1CC2(CC2)CN1c1cc(-n2ccnc2)c2ccc(Cl)c(Cl)c2n1
< 2000 nM
O=C(O)COC[C@@H]1CCCN1c1cc(-n2ccnc2)c2ccc(Cl)c(Cl)c2n1
< 2000 nM

Each molecule below has a reported value. Please supply its IC50.
1. CN(CCN(CCC(=O)O)S(C)(=O)=O)c1cc(-n2ccnc2)c2ccc(Cl)c(Cl)c2n1
2. COC(=O)Cc1cc(F)cc(CNc2cc(-n3ccnc3)c3ccc(Cl)c(Cl)c3n2)c1
3. COC(=O)[C@@H]1[C@H](O)CCN1c1cc(-n2ccnc2)c2ccc(Cl)c(Cl)c2n1

< 2000 nM
2000 to 30000 nM
2000 to 30000 nM

###

- System: cGAS activity in Reporter THP1 cell line
- Test Details: Cellular assay to measure cGAS activity: ISRE-Gaussia luciferase reporter THP1 cells transfected with ISD
- Assay type: cell-based
- Protocol Conditions: Homo sapiens, THP-1, Table 4, Gaussia luciferase
Kindly supply the reported IC50 values for the records listed here.

COC(=O)[C@@H]1CC(C)(C)CN1c1cc(-n2ccnc2)c2ccc(Cl)c(Cl)c2n1 [I-583]
< 2000 nM
COC(=O)COC[C@@H]1CCCN1c1cc(-n2ccnc2)c2ccc(Cl)c(Cl)c2n1 [I-667]
< 2000 nM
NC(=O)CNC(=O)C[C@@H]1CCCN1c1cc(-n2ccnc2)c2ccc(Cl)c(Cl)c2n1 [I-539]
2000 to 10000 nM
CC(C)OC(=O)[C@@H]1[C@@H](O)CCN1c1cc(-n2ccnc2)c2ccc(Cl)c(Cl)c2n1 [I-600]
< 2000 nM

I would be grateful if you could provide IC50 for each of the following entries.
1. O=C(O)Cc1ccccc1OC[C@@H]1CCCN1c1cc(-n2ccnc2)c2ccc(Cl)c(Cl)c2n1 [I-734]
2. COC(=O)CCOC[C@@H]1CCCN1c1cc(-n2ccnc2)c2ccc(Cl)c(Cl)c2n1 [I-665]
3. O=C(O)Cc1cccc(OC[C@@H]2CCCN2c2cc(-n3ccnc3)c3ccc(Cl)c(Cl)c3n2)c1 [I-736]
4. O=C(O)C[C@@H]1CCN1c1cc(-n2ccnc2)c2ccc(Cl)c(Cl)c2n1 [I-461]

1. < 2000 nM
2. < 2000 nM
3. < 2000 nM
4. > 10000 nM

For every record below, what is its IC50?
1. O=C(O)CCOCCNc1cc(-n2ccnc2)c2ccc(Cl)c(Cl)c2n1 [I-693]
2. COC(=O)[C@@H]1C[C@H]2C[C@H]2N1c1cc(-n2ccnc2)c2ccc(Cl)c(Cl)c2n1 [I-591]
3. O=C(O)COC[C@@H]1CCCN1c1cc(-n2ccnc2)c2ccc(Cl)c(Cl)c2n1 [I-666]
4. O=C(O)CCCC1CCCN(c2cc(-n3ccnc3)c3ccc(Cl)c(Cl)c3n2)C1 (centres unmarked) [I-739]
5. COC(=O)[C@@H]1[C@@H]2C[C@@H]2CN1c1cc(-n2ccnc2)c2ccc(Cl)c(Cl)c2n1 [I-577]
6. O=C(O)CC[C@@H]1CCCN1c1cc(-n2ccnc2)c2ccc(Cl)c(Cl)c2n1 [I-679]
7. O=C(O)c1cccc(OC[C@@H]2CCCN2c2cc(-n3ccnc3)c3ccc(Cl)c(Cl)c3n2)c1 [I-735]
8. COC(=O)COCC[C@@H]1CCCN1c1cc(-n2ccnc2)c2ccc(Cl)c(Cl)c2n1 [I-669]

1: > 10000 nM; 2: 2000 to 10000 nM; 3: < 2000 nM; 4: < 2000 nM; 5: 2000 to 10000 nM; 6: 2000 to 10000 nM; 7: 2000 to 10000 nM; 8: < 2000 nM

Fill in: IC50 of O=C(O)CCOC[C@@H]1CCCN1c1cc(-n2ccnc2)c2ccc(Cl)c(Cl)c2n1 [I-664] is ___
< 2000 nM

###

- Tested On: recombinant human cGAS (aa147-522) (Homo sapiens)
- Construct: recombinant human cGAS (aa147-522); His6-SUMO (cleaved yes); made in house; host or cells: E. coli BL21/pLys
- Test Details: In vitro inhibition assay of cGAS activity (ATP consumption, KinaseGlo Max)
- Format: biochemical
- Protocol Conditions: Table 3, read-out: cGAS Inhibition Results IC50
pIC50: −log10 of the molar value.
Observation Type: pIC50

Below are worked cases with known answers.
COC(=O)[C@@H]1C[C@@H](F)CN1c1cc(-n2ccnc2)c2ccc(Cl)c(Cl)c2n1
4.52 to 5.70
CN(CC(=O)NCCC(=O)O)c1cc(-n2ccnc2)c2ccc(Cl)c(Cl)c2n1
> 5.70
O=C1OCC2CCN(c3cc(-n4ccnc4)c4ccc(Cl)c(Cl)c4n3)C12 (centres unmarked)
> 5.70
O=C(O)[C@@H]1C[C@H](O)CN1c1cc(-n2ccnc2)c2ccc(Cl)c(Cl)c2n1
> 5.70
COC(=O)[C@@H]1c2ccccc2CN1c1cc(-n2ccnc2)c2ccc(Cl)c(Cl)c2n1 [I-660]
4.52 to 5.70
CN(CCCOc1ccc(Cl)cc1C(=O)O)c1cc(-n2ccnc2)c2ccc(Cl)c(Cl)c2n1
4.52 to 5.70
CN(CCC(=O)O)C[C@@H]1CCCN1c1cc(-n2ccnc2)c2ccc(Cl)c(Cl)c2n1
4.52 to 5.70
O=C(O)[C@@H]1CC[C@H](c2ccccc2)N1c1cc(-n2ccnc2)c2ccc(Cl)c(Cl)c2n1
> 5.70
CCOC(=O)[C@@H]1[C@@H](O)CCN1c1cc(-n2ccnc2)c2ccc(Cl)c(Cl)c2n1
4.52 to 5.70
O=C(O)C[C@@H]1[C@@H](O)CCN1c1cc(-n2ccnc2)c2ccc(Cl)c(Cl)c2n1
> 5.70

// for each compound below, give its pIC50
1. COc1ccc(OCCCN(c2cc(-n3ccnc3)c3ccc(Cl)c(Cl)c3n2)C(C)C)c(C(=O)O)c1
2. COC(=O)CCOC[C@@H]1CCCN1c1cc(-n2ccnc2)c2ccc(Cl)c(Cl)c2n1
3. O=C(O)C[C@@H]1[C@H](O)CCN1c1cc(-n2ccnc2)c2ccc(Cl)c(Cl)c2n1
4. O=C(O)CCCCCOC[C@@H]1CCCN1c1cc(-n2ccnc2)c2ccc(Cl)c(Cl)c2n1
5. O=C(O)CCOC[C@@H]1C[C@H](C(F)(F)F)CN1c1cc(-n2ccnc2)c2ccc(Cl)c(Cl)c2n1
6. CC(C)(C)OC(=O)[C@@H]1[C@@H](O)CCN1c1cc(-n2ccnc2)c2ccc(Cl)c(Cl)c2n1
7. O=C(O)Cc1ccccc1OC[C@@H]1CCCN1c1cc(-n2ccnc2)c2ccc(Cl)c(Cl)c2n1

["4.52 to 5.70", "> 5.70", "> 5.70", "> 5.70", "> 5.70", "4.52 to 5.70", "> 5.70"]
